experimental target: T1, mouse CTGF (Abbexa) (mouse, UniProt P29268 26-348, limits assumed)
T1 construct: also called Murine CTGF; mCTGF
T1 sequence (looked up): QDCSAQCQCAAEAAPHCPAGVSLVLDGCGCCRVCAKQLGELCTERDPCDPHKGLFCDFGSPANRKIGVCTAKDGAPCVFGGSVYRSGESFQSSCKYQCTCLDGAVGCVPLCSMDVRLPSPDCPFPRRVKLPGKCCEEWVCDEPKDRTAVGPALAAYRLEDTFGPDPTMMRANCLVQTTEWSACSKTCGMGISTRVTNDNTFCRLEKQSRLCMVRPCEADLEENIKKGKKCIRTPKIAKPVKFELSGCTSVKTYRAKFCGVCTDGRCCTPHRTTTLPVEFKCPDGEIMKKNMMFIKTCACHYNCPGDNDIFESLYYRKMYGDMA
procedure details: SPR (Biacore)
quantity kind: Kd (nM)
Number only, in nM; omit the unit.

Example results:
Query: Kd; subject: lipocalin mutein of SEQ ID NO: 14 (designed binder, also called hNGAL mutein; not shown: C-terminal His-tag) QDSTSDLIPAPPLSKVPLQQNFQDNQFQGKWYVVGLAGNAILREDKYPAKMFATIYELKEDKSYDVTSVRFEAKSCIYTIKTFVPGSQPGEFTRGNIKSAPGQTSTLVRVVSTNYNQHAMVFFKHVSQNREIFVITLYGRTKELTSELKENFIRFSKSLGLPENHIVFPVPIDQCIDG 0.369

Now try lipocalin mutein of SEQ ID NO: 35 (designed binder, also called hNGAL mutein; not shown: C-terminal His-tag) QDSTSDLIPAPPLSKVPLQQNFQDNQFQGKWYVVGWAGNVKLREDKQPLKMSATIYELKEDKSYDVTEVVFEQKKCHYIIKTFVPGSQPGEFTAGDIKSPPGYTSSLVRVVSTNYNQHAMVFFKKVSQNREFFWITLYGRTKELTSELKENFIRFSKSLGLPENHIVFPVPIDQCIDG . 2.24

Let us now turn to lipocalin mutein of SEQ ID NO: 36 (designed binder, also called hNGAL mutein) QDSTSDLIPAPPLSKVPLQQNFQDNQFQGKWYVVGWAGNVKLREDKQPAKMSATIYELKEDKSYDVTEVVFEQKKCHYIIKTFVPGSQPGEFTAGDIKSPPGYTSSLVRVVSTNYNQHAMVFFKKVGQNREFFWITLYGRTKELTSELKENFIRFSKSLGLPENHIVFPVPIDQCIDG 1.68

And what about the binder lipocalin mutein of SEQ ID NO: 12 (designed binder, also called hNGAL mutein; not shown: C-terminal His-tag) QDSTSDLIPAPPLSKVPLQQNFQDNQFQGKWYVVGLAGNAILREDKYPAKMFATIYELKEDKSYDVTSVRFENKSCVYTIKTFVPGSQPGEFTTGNIKSAPGQTSTLVRVVSTNYNQHAMVFFKHVSQNREFFVITLYGRTKELTSELKENFIRFSKSLGLPENHIVFPVPIDQCIDG ? 1.41

Please do the same for lipocalin mutein of SEQ ID NO: 28 (designed binder, also called hNGAL mutein; not shown: C-terminal His-tag) QDSTSDLIPAPPLSKVPLQQNFQDNQFQGKWYVVGLAGNYRLREDKDPSKMGATIYELKEDKSYDVTQVQFDDKKCLYVIETFVPGSQPGEFTLGAIKSYPGLTSQLVRVVSTNYNQHAMVFVKKVWPNLEYFQIVLYGRTKELTSELKENFIRFSKSLGLPENHIVFPVPIDQCIDG as well. 1.35

Could you now look at the following binder, please?
I would be grateful if you could share the reported Kd for lipocalin mutein of SEQ ID NO: 27 (designed binder, also called hNGAL mutein; not shown: C-terminal His-tag) QDSTSDLIPAPPLSKVPLQQNFQDNQFQGKWYVVGLAGNYRLREDKDPSKMGATIYELKEDKSYDVTQVQFDDKKCLYVIETFVPGSQPGEFTLGAIKSYPGLTSQLVRVVSTNYNQHAMVFLKKVYGSEEYFHITLYGRTKELTSELKENFIRFSKSLGLPENHIVFPVPIDQCIDG . 4.16
